method-notes: Cytotoxicity against human telomerase reverse transcriptase expressing RPE1 cells
Assay type: cell-based, TERT-RPE1
condition-info: read-out: ED50 (the source's name)
property-name: CC50

Known CC50 results, listed for orientation:
> print(dat)
                                        mol      result
1  COc1ccc(-c2oc3cc(OC)c(OC)c(OC)c3c(=O)c2OC)cc1OC  > 20 µg/mL
2  C=CCCC(=O)Oc1cc(-c2oc3cc(OC)c(OC)c(OC(=O)CCC=C)c3c(=O)c2OC)ccc1OC   0.6 µg/mL
3  COc1ccc(-c2oc3cc(OC)c(OC)c(O)c3c(=O)c2OC)cc1O   0.2 µg/mL
4  CCCCCC(=O)Oc1cc(-c2oc3cc(OC)c(OC)c(OC(=O)CCCCC)c3c(=O)c2OC)ccc1OC   0.4 µg/mL
5  CCC(=O)Oc1cc(-c2oc3cc(OC)c(OC)c(OC(=O)CC)c3c(=O)c2OC)ccc1OC   0.5 µg/mL
6  COc1ccc(-c2oc3cc(OC)c(OC)c(O)c3c(=O)c2OC)cc1OC(=O)c1ccccc1   3.6 µg/mL
7  CCCC(=O)Oc1cc(-c2oc3cc(OC)c(OC)c(OC(=O)CCC)c3c(=O)c2OC)ccc1OC   0.6 µg/mL
8  COc1ccc(-c2oc3cc(OC)c(OC)c(OC(C)=O)c3c(=O)c2OC)cc1OC(C)=O   0.4 µg/mL

Quick one: CC50 for COc1ccc(-c2oc3cc(OC)c(OC)c(OC(=O)c4ccccc4)c3c(=O)c2OC)cc1OC(=O)c1ccccc1 ?
4.3 µg/mL

---

System: KB
method-notes: Cytotoxicity against human KB cells
Assay type: functional
condition-info: read-out: ED50 (the source's name)
Quick reference: EC50 of the listed items.
Response body: numeric value in µg/mL, unit text excluded.

Known EC50 results, listed for orientation:
> print(dat)
                                        mol  result.number
1  CCC(=O)Oc1cc(-c2oc3cc(OC)c(OC)c(OC(=O)CC)c3c(=O)c2OC)ccc1OC            0.6
2  COc1ccc(-c2oc3cc(OC)c(OC)c(O)c3c(=O)c2OC)cc1O            0.2
3  CCCC(=O)Oc1cc(-c2oc3cc(OC)c(OC)c(OC(=O)CCC)c3c(=O)c2OC)ccc1OC            0.5
4  C=CCCC(=O)Oc1cc(-c2oc3cc(OC)c(OC)c(OC(=O)CCC=C)c3c(=O)c2OC)ccc1OC            0.6
5  CCCCCC(=O)Oc1cc(-c2oc3cc(OC)c(OC)c(OC(=O)CCCCC)c3c(=O)c2OC)ccc1OC            0.5

In the following, a different molecule is considered.
Quick one: EC50 for COc1ccc(-c2oc3cc(OC)c(OC)c(OC(C)=O)c3c(=O)c2OC)cc1OC(C)=O ?
0.2

---

Quick reference: CC50 of the listed items.
method-notes: Cytotoxicity against HUVEC
Assay type: cell-based
condition-info: human, read-out: ED50 (the source's name)

Known CC50 results, listed for orientation:
> print(dat)
                                   molecule  property.name      result
1  CCCC(=O)Oc1cc(-c2oc3cc(OC)c(OC)c(OC(=O)CCC)c3c(=O)c2OC)ccc1OC           CC50  > 20 µg/mL
2  COc1ccc(-c2oc3cc(OC)c(OC)c(OC)c3c(=O)c2OC)cc1OC [HEXAMETHOXYFLAVONE]           CC50  > 20 µg/mL

In the following, a different molecule is considered.
Quick one: CC50 for COc1ccc(-c2oc3cc(OC)c(OC)c(OC(=O)c4ccccc4)c3c(=O)c2OC)cc1OC(=O)c1ccccc1 ?
> 20 µg/mL

---

System: KB
method-notes: Cytotoxicity against human KB cells
Format: functional
condition-info: read-out: ED50 (the source's name)
Quick reference: EC50 of the listed items.

Quick one: EC50 for COc1ccc(-c2oc3cc(OC)c(OC)c(OC)c3c(=O)c2OC)cc1OC ?
> 20 µg/mL

Try the compound COc1ccc(-c2oc3cc(OC)c(OC)c(OC(=O)c4ccccc4)c3c(=O)c2OC)cc1OC(=O)c1ccccc1
> 20 µg/mL

Try the compound COc1ccc(-c2oc3cc(OC)c(OC)c(O)c3c(=O)c2OC)cc1OC(=O)c1ccccc1
> 20 µg/mL
